System: RXRa DBDmut IVT, anti-RXR (DBD mutation: RXRa K156A/R161A, NR concentration 90 nM)
assay_overview: PBM binding z-score (relative to random genomic background probes); higher = stronger binding; sequences stand for … in GC…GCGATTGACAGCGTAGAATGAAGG
endpoint_name: PBM binding z-score
Give only the figure.

sequence	PBM binding z-score
ACAGACAGGTGATGAACGTAACTCAGGCTATCAT	0.0589
CCAGACAGGTGAGAAGGTATCTCAGCCTCGATTA	0.0467
ACAGACAGGTCATGAAGGTAACTCAGGCTATCAT	1.69

Ask: Dear colleague, I am looking for the recorded PBM binding z-score of the following sequence: "TCTATTAGTTGATTAGGGCAACCAAAACAGCGGA"
Reply: 0.92

Ask: Look at this sequence and give its reported PBM binding z-score. "CATACAGGGTCAGCTAGGCCAGACTAGGGACGGC"
Reply: 1.37

Ask: Form field: reported PBM binding z-score of "GATACAGGGTCAGCTAGAGCCCAGAGTATGGAAA"
Reply: 1.25
